Hello, the source for this data is patent US20130302442A1, in case you need it.

# MIC50 per entry for Salmonella Spp.

Exercise: Fetch value of MIC50 on Salmonella Spp. for CC(=O)OCC1=C(C(=O)O)N2C(=O)[C@@H](NC(=O)Cc3cccs3)[C@H]2SC1 [Cephalothin] .
Key: 2 mg/L

Exercise: Fetch value of MIC50 on Salmonella Spp. for CC1(C)S[C@@H]2[C@H](NC(=O)[C@H](N)c3ccccc3)C(=O)N2[C@H]1C(=O)O [Ampicillin] .
Key: 1 mg/L

Exercise: Fetch value of MIC50 on Salmonella Spp. for O=C(O)c1cn(C2CC2)c2cc(N3CCNCC3)c(F)cc2c1=O [Ciprofloxacin] .
Key: 0.015 mg/L

Exercise: Fetch value of MIC50 on Salmonella Spp. for CN(C)[C@@H]1C(O)=C(C(N)=O)C(=O)[C@@]2(O)C(O)=C3C(=O)c4c(O)cccc4[C@@](C)(O)[C@H]3C[C@@H]12 [Tetracycline, tetracycline] .
Key: 2 mg/L

Exercise: Fetch value of MIC50 on Salmonella Spp. for CN(C)c1ccc(O)c2c1C[C@H]1C[C@H]3[C@H](N(C)C)C(O)=C(C(N)=O)C(=O)[C@@]3(O)C(O)=C1C2=O [Minocycline, minocycline] .
Key: 2 mg/L
